B1: E3 ubiquitin-protein ligase NEDD4-like, residues 539 to 589; numbered along this chain, Q96PU5 (parent)
chain: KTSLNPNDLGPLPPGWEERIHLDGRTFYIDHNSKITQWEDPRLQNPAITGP

Variants of: B1
Assay: abundance fitness (aPCA) (normalised: wild type 0, dead -1); higher = more abundant; growth selection in yeast, the domain comes from the species named
Conditions: Homo sapiens
# abundance fitness listing for each entry below
Could you keep your reply to the number by itself?

E39A -0.15
E39W -0.456
N5D -0.407
H21Y -0.151
R25S -0.063

Input line: Give its abundance fitness value. Item: N5C
Output line: -0.04

Input line: Give its abundance fitness value. Item: R19I
Output line: -0.181
